meta.source: patent US8329735B2

Consider the following compounds; for each one, report its pEC50.
- Experimental Target: human CB2R (Homo sapiens, UniProt P34972)
- Construct: host or cells: CHO cells
- Sequence (P34972 whole entry): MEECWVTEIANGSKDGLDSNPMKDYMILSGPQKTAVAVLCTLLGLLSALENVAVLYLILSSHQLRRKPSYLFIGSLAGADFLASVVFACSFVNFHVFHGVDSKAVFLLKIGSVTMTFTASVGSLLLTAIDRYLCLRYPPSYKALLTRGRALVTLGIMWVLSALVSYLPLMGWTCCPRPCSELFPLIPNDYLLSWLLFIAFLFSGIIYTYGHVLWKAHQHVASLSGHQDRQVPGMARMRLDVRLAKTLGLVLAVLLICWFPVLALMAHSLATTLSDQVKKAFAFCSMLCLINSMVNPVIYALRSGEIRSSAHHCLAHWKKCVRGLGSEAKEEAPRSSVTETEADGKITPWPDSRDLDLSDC
- Experiment: CB2R mediated modulation of cAMP synthesis
- Assay type: cell-based
pEC50 (log units): -log10 of the concentration in mol/L.

I would be grateful if you could share the reported pEC50 for `Cn1nc(C(C)(C)C)cc1NC(=O)C(C)(C)S(=O)(=O)c1ccc(F)cc1` .
8.59

Look at this compound and give its reported pEC50. `CC(C)(C)c1cc(NC(=O)C(C)(C)S(=O)(=O)CC2CCOCC2)no1`
8.35

Looking for the measured pEC50 of `CC(C)(C)n1nnc(NC(=O)C(C)(C)S(=O)(=O)C2CCOCC2)n1` , can you help?
7.68

# pEC50 lookup, item `CC(C)(C)n1nnc(NC(=O)C(C)(C)S(=O)(=O)CC[C@@H]2CCOC2)n1`
7.92

----------
- Experimental Target: human CB1R (Homo sapiens, UniProt P21554)
- Construct: host or cells: CHO cells
- Sequence (P21554 whole entry): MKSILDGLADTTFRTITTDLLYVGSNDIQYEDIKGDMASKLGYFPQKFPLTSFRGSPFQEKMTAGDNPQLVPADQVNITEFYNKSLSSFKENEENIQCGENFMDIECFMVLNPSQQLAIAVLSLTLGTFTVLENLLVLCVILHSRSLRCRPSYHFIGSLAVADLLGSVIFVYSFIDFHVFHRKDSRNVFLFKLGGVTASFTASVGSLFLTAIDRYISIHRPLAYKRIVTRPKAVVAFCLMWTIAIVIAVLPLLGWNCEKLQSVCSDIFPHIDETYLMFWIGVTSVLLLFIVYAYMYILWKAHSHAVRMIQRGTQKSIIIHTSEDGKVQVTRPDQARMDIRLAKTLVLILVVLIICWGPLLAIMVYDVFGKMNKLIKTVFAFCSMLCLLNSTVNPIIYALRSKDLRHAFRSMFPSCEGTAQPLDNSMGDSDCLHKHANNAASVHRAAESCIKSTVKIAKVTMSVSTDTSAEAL
- Experiment: CB1R mediated modulation of cAMP synthesis
- Type: cell-based
- Assay Conditions: Table II; CHO cells expressing human CB1R, forskolin-stimulated cAMP; read-out: CB1 EC50
Measured Quantity: EC50

Tell me the measured EC50 of CC[C@H](C)S(=O)(=O)C(C)(C)C(=O)Nc1nnn(C(C)(C)C)n1 [Table II compound 5] , please.
> 50 µM

----------
Field: EC50. Provide a value for each of the compounds that follow.
- Experimental Target: human CB1R (Homo sapiens)
- Construct: host or cells: CHO cells
- Experiment: CB1R mediated modulation of cAMP synthesis
- Assay type: cell-based
- Assay Conditions: Table XI; CHO cells expressing human CB1R, forskolin-stimulated cAMP; read-out: CB1 CAMP EC50

Give recorded EC50 with human CB1R (Homo sapiens) for the following compound: `CC[C@H](C)S(=O)(=O)C(C)(C)C(=O)Nc1nnn(C(C)(C)C)n1`
> 50 µM

Field: EC50 (human CB1R (Homo sapiens)). Entry: `Cn1nc(C(C)(C)C)cc1NC(=O)C(C)(C)S(=O)(=O)C1CCOCC1`
> 20 µM

Value wanted: EC50 (human CB1R (Homo sapiens)) of entry `Cn1nc(C(C)(C)C)cc1NC(=O)C(C)(C)S(=O)(=O)CC1CCOCC1`
> 20 µM

For human CB1R (Homo sapiens), provide EC50 of CCC(C)S(=O)(=O)C(C)(C)C(=O)Nc1cc(C(C)(C)C)nn1C (stereo not shown) please.
> 20 µM

----------
- Experiment: Human microsomal stability assay
- Type: in vitro ADME
- Assay Conditions: human liver microsomes 1 mg protein/ml, 1 uM compound, pH 7.4
One threshold, 70 QH %, splits the recorded HLM clearance (percent hepatic blood flow) values: lower ones are fulfilled, equal or higher ones are not fulfilled.

Lab log: compare recorded HLM clearance (percent hepatic blood flow) with 70 QH %; is it strictly lower for `CC(C)(C)n1nnc(NC(=O)C(C)(C)S(=O)(=O)CC2CCOCC2)n1` ?
fulfilled

Hello, is HLM clearance (percent hepatic blood flow) of the following molecule strictly smaller than 70 QH %? CCC(C)S(=O)(=O)C(C)(C)C(=O)Nc1cc(C(C)(C)C)nn1C (centres unmarked)
fulfilled

Please state whether HLM clearance (percent hepatic blood flow) is below 70 QH % for `CC(C)(C)c1csc(NC(=O)C(C)(C)S(=O)(=O)c2ccc(F)cc2)n1`
not fulfilled

Threshold test, HLM clearance (percent hepatic blood flow) < 70 QH %: `CC[C@H](C)S(=O)(=O)C(C)(C)C(=O)Nc1nnn(C(C)(C)C)n1`
fulfilled

State whether 70 QH % exceeds HLM clearance (percent hepatic blood flow) recorded for CCC(C)S(=O)(=O)C(C)(C)C(=O)Nc1nc(C(C)(C)C)cs1 (centres unmarked) .
fulfilled

Just wondering, is HLM clearance (percent hepatic blood flow) of `CC(C)(C)c1cc(NC(=O)C(C)(C)S(=O)(=O)C2CCOCC2)no1` below 70 QH %?
fulfilled

Say whether its HLM clearance (percent hepatic blood flow) is strictly beneath 70 QH %. Entry: `CC(C)(C)c1cc(NC(=O)C(C)(C)S(=O)(=O)c2ccc(F)cc2)on1`
fulfilled

Quick check: HLM clearance (percent hepatic blood flow) of `CC(C)(C)n1nnc(NC(=O)C(C)(C)S(=O)(=O)c2ccc(F)cc2)n1` under 70 QH %?
fulfilled

Given the entry `CC(C)(C)c1cc(NC(=O)C(C)(C)S(=O)(=O)CC2CCOCC2)no1` , would its reported HLM clearance (percent hepatic blood flow) be below 70 QH %?
fulfilled

Say whether its HLM clearance (percent hepatic blood flow) is strictly beneath 70 QH %. Entry: `CC(C)(C)n1nnc(NC(=O)C(C)(C)S(=O)(=O)C2CCOCC2)n1`
fulfilled

Lab note: HLM clearance (percent hepatic blood flow) threshold 70 QH %. Does this molecule come in strictly under it? `Cn1nc(C(C)(C)C)cc1NC(=O)C(C)(C)S(=O)(=O)C1CCOCC1`
fulfilled

Find out if reported HLM clearance (percent hepatic blood flow) for `Cn1nc(C(C)(C)C)cc1NC(=O)C(C)(C)S(=O)(=O)c1ccc(F)cc1` is less than 70 QH %
fulfilled

Just wondering, is HLM clearance (percent hepatic blood flow) of `Cn1nc(C(C)(C)C)cc1NC(=O)C(C)(C)S(=O)(=O)CC1CCOCC1` below 70 QH %?
fulfilled

Is 70 QH % strictly greater than the molecule's reported HLM clearance (percent hepatic blood flow)? molecule: `CC(C)(C)c1csc(NC(=O)C(C)(C)S(=O)(=O)CC2CCOCC2)n1`
not fulfilled

Is HLM clearance (percent hepatic blood flow) of `CC(C)(C)c1csc(NC(=O)C(C)(C)S(=O)(=O)C2CCOCC2)n1` strictly below 70 QH %?
not fulfilled
